# System: VGLUTs (GLU vesicular transport)
# Test: Vesicular glutamate reuptake test ([3H]-glutamate, synaptic vesicles)
# Format: biochemical, rat
# Test Settings: vesicular glutamate transport; quinoline-derived compounds
pEC50: −log10 of the molar value.
Attribute Measured: pEC50

• O=C(O)c1cc(C(=O)O)c2cc(/C=C/c3ccc(-c4ccc(/C=C/c5ccc6nc(C(=O)O)cc(C(=O)O)c6c5)cc4)cc3)ccc2n1 [LSP13-1173-YL173] = 4.82

A. O=C(O)c1cc(C(=O)O)c2cc(-c3ccc(-c4ccccc4)cc3)ccc2n1 [LSP13-1152-YL152 (L8)]
B. CCOC(=O)c1cc(C(=O)OCC)c2cc(-c3ccc(-c4ccc(-c5ccc6nc(C(=O)OCC)cc(C(=O)OCC)c6c5)cc4)cc3)ccc2n1 [LSP13-1153-YL153]
C. O=C(O)c1cc(C(=O)O)c2cc(-c3ccc(-c4ccc(-c5ccc6nc(C(=O)O)cc(C(=O)O)c6c5)cc4)cc3)ccc2n1 [LSP13-1160-YL160]
Task: Ascending by pEC50, please. Hello, could you send the labels back in the order asked? Thank you.
Output: A, B, C

###

# Test: Fluorimetry: absorption and emission spectra, Stokes shift, molar absorption coefficient, quantum efficiency
# Type: physicochemical
# Set-up: unit not given here
# Test Settings: pH 7 (phosphate buffer pH 7.2, 0.2 M)
# Procedure: The physicochemical properties of each ligand were determined thanks to fluorimetry. For each compound, a dilution range was performed and measurements were taken at 1 mM, 316 μM, 100 μM, 31.6 μM, 10 μM, 3.16 μM and 1μ. In 96-well fluorescence microplates, the absorbance and emission spectra of the ligands could be determined at each concentration thanks to a plate spectrophotometer (Tecan). […] [formula] • of the fluorescence spectrum, n: refractive index of the medium). […]
Attribute Measured: λmax abs

- Nc1ccc(-c2ccc(C#Cc3cc4cc(C(=O)O)c(=O)oc4cc3O)cc2)cc1 [LSP17-1173]: 360
- CCOC(=O)c1cc2cc(-n3cc(-c4ccc(-c5ccc(N)cc5)cc4)nn3)c(OC)cc2oc1=O [C07]: 365
- CCOC(=O)c1cc(C(=O)OCC)c2cc(-c3ccc(-c4ccccc4)cc3)ccc2n1 [YL151]: 365
- CCOC(=O)c1cc2cc(-n3cc(-c4ccc(-c5ccc(N)cc5)cc4)nn3)ccc2oc1=O [B09]: 365
- O=C(O)c1cc(C(=O)O)c2cc(-c3ccc(-c4ccccc4)cc3)ccc2n1 [LSP13-1152-YL152 (L8)]: 330
- COc1cc2oc(=O)c(C(=O)O)cc2cc1-n1cc(-c2ccc(-c3ccc(N)cc3)cc2)nn1 [LSP17-1124]: 365
- Nc1ccc(-c2ccc(-c3cn(-c4ccc5oc(=O)c(C(=O)O)cc5c4)nn3)cc2)cc1 [LSP17-1115]: 365
- CCOC(=O)c1cc2cc(C#Cc3ccc(-c4ccc(N)cc4)cc3)c(O)cc2oc1=O [F11]: 365

###

# Test system: VGLUTs (GLU vesicular transport)
# Test: Vesicular glutamate reuptake test ([3H]-glutamate, synaptic vesicles)
# Type: biochemical, rat
# Test Settings: 20 μM; coumarin-derived compounds
Attribute Measured: % inhibition of GLU vesicular transport at 20 μM (%)
Give the value, in units of %, as a plain number.

* CCN(CC)c1cc2oc(=O)c(C(=O)O)cc2cc1C#Cc1ccc(-c2ccc(N)cc2)cc1 [LSP17-1126] | 100
* COc1cc2oc(=O)c(C(=O)O)cc2cc1C#Cc1ccc(-c2ccc(N)cc2)cc1 [LSP17-1127] | 40

Let us examine a further case.
Task: Give measured % inhibition of GLU vesicular transport at 20 μM for O=C(O)c1cc2cc(C#Cc3ccccc3)ccc2oc1=O [LSP17-1044] (VGLUTs (GLU vesicular transport)).
Output: 30

###

# Test: Fluorimetry: absorption and emission spectra, Stokes shift, molar absorption coefficient, quantum efficiency
# Type: physicochemical
# Test Settings: coumarin-343 as reference, DMSO
Attribute Measured: φ (quantum efficiency)

Example compounds with recorded φ (quantum efficiency):
• CCOC(=O)c1cc2cc(-n3cc(-c4ccc(-c5ccc(N)cc5)cc4)nn3)c(OC)cc2oc1=O [C07] = 0.05
• CCOC(=O)c1cc(C(=O)OCC)c2cc(-c3ccc(-c4ccccc4)cc3)ccc2n1 [YL151] = 0.11

A. CCOC(=O)c1cc2cc(C#Cc3ccc(-c4ccc(N)cc4)cc3)c(O)cc2oc1=O [F11]
B. Nc1ccc(-c2ccc(-c3cn(-c4ccc5oc(=O)c(C(=O)O)cc5c4)nn3)cc2)cc1 [LSP17-1115]
Task: I'm curious whether A or B has the smaller φ (quantum efficiency) number. Which is it? Mark your selection by writing its label.
Output: B

###

# Test: Fluorimetry: absorption and emission spectra, Stokes shift, molar absorption coefficient, quantum efficiency
# Assay type: physicochemical
# Design: key: λmaxem − λmaxabs (emission peak minus absorption peak)
# Test Settings: pH 7; λmaxem-λmaxabs
Attribute Measured: Stokes shift

Example compounds with recorded Stokes shift:
- COc1cc2oc(=O)c(C(=O)O)cc2cc1-n1cc(-c2ccc(-c3ccc(N)cc3)cc2)nn1: 51
- CCOC(=O)c1cc2cc(C#Cc3ccc(-c4ccc(N)cc4)cc3)c(O)cc2oc1=O: 60

I. CCOC(=O)c1cc2cc(-n3cc(-c4ccc(-c5ccc(N)cc5)cc4)nn3)ccc2oc1=O
II. Nc1ccc(-c2ccc(C#Cc3cc4cc(C(=O)O)c(=O)oc4cc3O)cc2)cc1
Task: I'm curious whether I or II has the smaller Stokes shift number. Which is it? Mark your selection by writing its label.
Output: I
(I: 47, II: 80)

###

# System: VGLUT3 (BON VGLUT3 cells)
# Test: Confocal fluorescence labeling of BON cells expressing VGLUT3
# Format: cell-based, human (BON cells)
# Test Settings: FIG. 2; 1 h, 37 °C
Attribute Measured: fluorescence intensity in BON VGLUT3 cells relative to BON WT cells

- CCOC(=O)c1cc2cc(-n3cc(-c4ccc(-c5ccc(N)cc5)cc4)nn3)ccc2oc1=O: significantly increases
- O=C(O)c1cc(C(=O)O)c2cc(-c3ccc(-c4ccccc4)cc3)ccc2n1: significantly increases
- CCOC(=O)c1cc2cc(-n3cc(-c4ccc(-c5ccc(N)cc5)cc4)nn3)c(OC)cc2oc1=O: significantly increases
- Nc1ccc(-c2ccc(C#Cc3cc4cc(C(=O)O)c(=O)oc4cc3O)cc2)cc1: significantly increases

###

# Test: Fluorimetry: absorption and emission spectra, Stokes shift, molar absorption coefficient, quantum efficiency
# Format: physicochemical
# Test Settings: coumarin-343 as reference, DMSO
# Procedure: The physicochemical properties of each ligand were determined thanks to fluorimetry. For each compound, a dilution range was performed and measurements were taken at 1 mM, 316 μM, 100 μM, 31.6 μM, 10 μM, 3.16 μM and 1μ. In 96-well fluorescence microplates, the absorbance and emission spectra of the ligands could be determined at each concentration thanks to a plate spectrophotometer (Tecan). […] [formula] • of the fluorescence spectrum, n: refractive index of the medium). […]
Attribute Measured: ε (molar absorption coefficient) (L/cm/mol)

1. CCOC(=O)c1cc2cc(-n3cc(-c4ccc(-c5ccc(N)cc5)cc4)nn3)c(OC)cc2oc1=O
2. O=C(O)c1cc(C(=O)O)c2cc(-c3ccc(-c4ccccc4)cc3)ccc2n1
Task: I'm curious whether 1 or 2 has the smaller ε (molar absorption coefficient) number. Which is it? Mark your selection by writing its label.
Output: 2

###

# Test: Fluorimetry: absorption and emission spectra, Stokes shift, molar absorption coefficient, quantum efficiency
# Assay type: physicochemical
# Design: unit not given here
# Test Settings: DMSO
Attribute Measured: λmax abs

* CCOC(=O)c1cc2cc(-n3cc(-c4ccc(-c5ccc(N)cc5)cc4)nn3)c(OC)cc2oc1=O | 335
* COc1cc2oc(=O)c(C(=O)O)cc2cc1-n1cc(-c2ccc(-c3ccc(N)cc3)cc2)nn1 | 330
* CCOC(=O)c1cc(C(=O)OCC)c2cc(-c3ccc(-c4ccccc4)cc3)ccc2n1 | 360
* Nc1ccc(-c2ccc(-c3cn(-c4ccc5oc(=O)c(C(=O)O)cc5c4)nn3)cc2)cc1 | 325
* CCOC(=O)c1cc2cc(-n3cc(-c4ccc(-c5ccc(N)cc5)cc4)nn3)ccc2oc1=O | 320
* O=C(O)c1cc(C(=O)O)c2cc(-c3ccc(-c4ccccc4)cc3)ccc2n1 | 355

###

% inhibition of GLU vesicular transport at 20 μM for assorted molecules
# Test system: VGLUTs (GLU vesicular transport)
# Test: Vesicular glutamate reuptake test ([3H]-glutamate, synaptic vesicles)
# Type: biochemical, rat
# Test Settings: 20 μM; coumarin-derived compounds
Give the value, in units of %, as a plain number.

Example molecules with recorded % inhibition of GLU vesicular transport at 20 μM:
- CCN(CC)c1cc2oc(=O)c(C(=O)O)cc2cc1-n1cc(-c2ccccc2)nn1: 62
- O=C(O)c1cc2cc(/N=N/c3ccccc3)c(O)cc2oc1=O: 12
- Nc1ccc(-c2ccc(C#Cc3ccc4oc(=O)c(C(=O)O)cc4c3)cc2)cc1: 100
- COc1cc(/N=N/c2ccc(Br)cc2)cc2cc(C(=O)O)c(=O)oc12: 42

Task: Give measured % inhibition of GLU vesicular transport at 20 μM for COc1cc2oc(=O)c(C(=O)O)cc2cc1-n1cc(-c2ccccc2)nn1 (VGLUTs (GLU vesicular transport)).
Output: 45

Cited source: patent US20260374750A1
